target: glucagon receptor (co-transfected in HEK293 cells with a CRE-luciferase reporter); assay: cell-based or functional assay
Square brackets hold non-standard residues; d marks the D form. Ends that are not written are not given here. 3Pal = N[C@@H](Cc1cccnc1)C(=O)O; 4Pal = N[C@@H](Cc1ccncc1)C(=O)O; Aib = CC(C)(N)C(=O)O
REPORTED_PROPERTY: % bioactivity of GCG (%)

The examples below pair each entry with its known result.
| BINDER | OUTPUT_UNIT | OBS_VALUE |
| --- | --- | --- |
| HSQGTFTSDYSK[4Pal]LD[Aib]RRAQDFVQWLMNT [Glucagon analog 6] | % | 60 |
| HSQGTFTSDYSK[3Pal]LD[Aib]RRAQDFVQWLMNT [Glucagon analog 5] | % | 54 |
| HSQGT[4Pal]TSD[4Pal]SK[4Pal]LD[Aib]RRAQDFVQWLMNT [Glucagon analog 10] | % | 24 |
| HSQGT[3Pal]TSD[3Pal]SK[3Pal]LD[Aib]RRAQDFVQWLMNT [Glucagon analog 9] | % | 28 |
| HSQGTFTSD[4Pal]SK[4Pal]LD[Aib]RRAQDFVQWLMNT [Glucagon analog 8] | % | 66 |

1 = HSQGTFTSD[3Pal]SKYLD[Aib]RRAQDFVQWLMNT [Glucagon analog 4]
2 = HSQGT[3Pal]TSD[3Pal]SK[3Pal]LD[Aib]RRAQD[3Pal]VQWLMNT [Glucagon analog 11]
Query block: Could you please tell me which of these two has the higher % bioactivity of GCG: 1 or 2 ? Reply with the label of the item you choose.
Result block: 1
(1: 76%, 2: 1%)
